Source listed as BigSolDB 2.1.

assay context: in DMF, 303.15 K
value type: solubility (mole fraction)

structure=Cc1cc(=O)oc2cc(N)ccc12 value_type="solubility (mole fraction)" data_value=0.156

* * *

assay context: in water, 308.15 K
value type: solubility (mole fraction)

structure=Cc1cc(=O)oc2cc(N)ccc12 data_value=4.18e-05

* * *

assay context: in ethanol, 288.15 K
value type: solubility (mole fraction)

structure=Cc1cc(=O)oc2cc(N)ccc12 data_value=0.00117

* * *

assay context: in ethylene glycol, 278.15 K
value type: solubility (mole fraction)

structure=Cc1cc(=O)oc2cc(N)ccc12 value_type="solubility (mole fraction)" data_value=0.000384

* * *

assay context: in ethanol, 318.15 K
value type: solubility (mole fraction)

structure=Cc1cc(=O)oc2cc(N)ccc12 data_value=0.00233

* * *

assay context: in ethylene glycol, 313.15 K
value type: solubility (mole fraction)

structure=Cc1cc(=O)oc2cc(N)ccc12 data_value=0.0013

* * *

assay context: in water, 288.15 K
value type: solubility (mole fraction)

structure=Cc1cc(=O)oc2cc(N)ccc12 data_value=1.74e-05

* * *

assay context: in water, 303.15 K
value type: solubility (mole fraction)

structure=Cc1cc(=O)oc2cc(N)ccc12 data_value=3.41e-05

* * *

assay context: in ethylene glycol, 323.15 K
value type: solubility (mole fraction)

structure=Cc1cc(=O)oc2cc(N)ccc12 data_value=0.00163

* * *

assay context: in ethanol, 303.15 K
value type: solubility (mole fraction)

structure=Cc1cc(=O)oc2cc(N)ccc12 data_value=0.00161

* * *

assay context: in ethylene glycol, 293.15 K
value type: solubility (mole fraction)

structure=Cc1cc(=O)oc2cc(N)ccc12 data_value=0.000663

* * *

assay context: in DMF, 288.15 K
value type: solubility (mole fraction)

structure=Cc1cc(=O)oc2cc(N)ccc12 value_type="solubility (mole fraction)" data_value=0.0902

* * *

assay context: in isopropanol, 313.15 K
value type: solubility (mole fraction)

structure=Cc1cc(=O)oc2cc(N)ccc12 data_value=0.00237

* * *

assay context: in ethylene glycol, 298.15 K
value type: solubility (mole fraction)

structure=Cc1cc(=O)oc2cc(N)ccc12 data_value=0.000812

* * *

assay context: in ethylene glycol, 303.15 K
value type: solubility (mole fraction)

structure=Cc1cc(=O)oc2cc(N)ccc12 value_type="solubility (mole fraction)" data_value=0.000974

* * *

assay context: in ethanol, 308.15 K
value type: solubility (mole fraction)

structure=Cc1cc(=O)oc2cc(N)ccc12 value_type="solubility (mole fraction)" data_value=0.00177

* * *

assay context: in ethanol, 293.15 K
value type: solubility (mole fraction)

structure=Cc1cc(=O)oc2cc(N)ccc12 data_value=0.00123

* * *

assay context: in isopropanol, 288.15 K
value type: solubility (mole fraction)

structure=Cc1cc(=O)oc2cc(N)ccc12 data_value=0.00127

* * *

assay context: in isopropanol, 318.15 K
value type: solubility (mole fraction)

structure=Cc1cc(=O)oc2cc(N)ccc12 data_value=0.00261

* * *

assay context: in water, 318.15 K
value type: solubility (mole fraction)

structure=Cc1cc(=O)oc2cc(N)ccc12 value_type="solubility (mole fraction)" data_value=6.27e-05

* * *

assay context: in ethylene glycol, 288.15 K
value type: solubility (mole fraction)

structure=Cc1cc(=O)oc2cc(N)ccc12 data_value=0.000531

* * *

assay context: in isopropanol, 278.15 K
value type: solubility (mole fraction)

structure=Cc1cc(=O)oc2cc(N)ccc12 data_value=0.00103

* * *

assay context: in ethylene glycol, 283.15 K
value type: solubility (mole fraction)

structure=Cc1cc(=O)oc2cc(N)ccc12 data_value=0.000432

* * *

assay context: in DMF, 318.15 K
value type: solubility (mole fraction)

structure=Cc1cc(=O)oc2cc(N)ccc12 data_value=0.251

* * *

assay context: in isopropanol, 298.15 K
value type: solubility (mole fraction)

structure=Cc1cc(=O)oc2cc(N)ccc12 value_type="solubility (mole fraction)" data_value=0.00173

* * *

assay context: in ethanol, 283.15 K
value type: solubility (mole fraction)

structure=Cc1cc(=O)oc2cc(N)ccc12 value_type="solubility (mole fraction)" data_value=0.00101

* * *

assay context: in water, 278.15 K
value type: solubility (mole fraction)

structure=Cc1cc(=O)oc2cc(N)ccc12 data_value=1.07e-05

* * *

assay context: in isopropanol, 323.15 K
value type: solubility (mole fraction)

structure=Cc1cc(=O)oc2cc(N)ccc12 data_value=0.00294

* * *

assay context: in water, 323.15 K
value type: solubility (mole fraction)

structure=Cc1cc(=O)oc2cc(N)ccc12 data_value=7.57e-05

* * *

assay context: in isopropanol, 303.15 K
value type: solubility (mole fraction)

structure=Cc1cc(=O)oc2cc(N)ccc12 value_type="solubility (mole fraction)" data_value=0.00188

* * *

assay context: in water, 313.15 K
value type: solubility (mole fraction)

structure=Cc1cc(=O)oc2cc(N)ccc12 data_value=5.14e-05

* * *

assay context: in DMF, 293.15 K
value type: solubility (mole fraction)

structure=Cc1cc(=O)oc2cc(N)ccc12 value_type="solubility (mole fraction)" data_value=0.108

* * *

assay context: in isopropanol, 293.15 K
value type: solubility (mole fraction)

structure=Cc1cc(=O)oc2cc(N)ccc12 value_type="solubility (mole fraction)" data_value=0.00152

* * *

assay context: in water, 293.15 K
value type: solubility (mole fraction)

structure=Cc1cc(=O)oc2cc(N)ccc12 value_type="solubility (mole fraction)" data_value=2.18e-05

* * *

assay context: in ethanol, 323.15 K
value type: solubility (mole fraction)

structure=Cc1cc(=O)oc2cc(N)ccc12 data_value=0.00262

* * *

assay context: in ethylene glycol, 308.15 K
value type: solubility (mole fraction)

structure=Cc1cc(=O)oc2cc(N)ccc12 value_type="solubility (mole fraction)" data_value=0.00112

* * *

assay context: in isopropanol, 308.15 K
value type: solubility (mole fraction)

structure=Cc1cc(=O)oc2cc(N)ccc12 data_value=0.00208
